test system: LLC-MK2 cells; format: cell-based, Rhesus monkey; settings: 50 µM
Where a SMILES comes first, the peptide text is derived from it.
quantity measured: Cell Viability (%)

• C[C@H](NC(=O)[C@H](CCC(=O)O)NC(=O)[C@H](CO)NC(=O)CNC(=O)[C@H](C)NC(=O)[C@H](CCC(=O)O)NC(=O)[C@@H](N)CC(=O)O)C(=O)N[C@@H](CC(=O)O)C(=O)N[C@@H](Cc1c[nH]cn1)C(=O)N[C@@H](CCC(=O)O)C(=O)NCC(=O)N[C@H](C(=O)N[C@@H](Cc1c[nH]cn1)C(=O)N[C@@H](CO)C(=O)N[C@H](C(=O)O)[C@@H](C)O)[C@@H](C)O [Peptide D15T] (H-DEAGSEADHEGTHST-OH; N-terminus and C-terminus assumed) = 107.55
• CC(C)[C@H](NC(=O)[C@@H](NC(=O)[C@H](Cc1ccccc1)NC(=O)CNC(=O)[C@H](CCC(=O)O)NC(=O)[C@H](CC(N)=O)NC(=O)[C@H](CCC(=O)O)NC(=O)[C@H](CCCCN)NC(=O)[C@@H](NC(=O)[C@H](CCC(=O)O)NC(=O)[C@H](CCC(=O)O)NC(=O)[C@@H](N)CO)[C@@H](C)O)[C@@H](C)O)C(=O)N[C@H](C(=O)N[C@@H](C)C(=O)N[C@@H](CCC(=O)O)C(=O)NCC(=O)N[C@@H](CCCCN)C(=O)O)[C@@H](C)O [Peptide S17K] (H-SEETKENEGFTVTAEGK-OH; N-terminus and C-terminus assumed) = 102.69
